Hey, just so you know, these numbers are from paper PMC10467532.

Experiment: Pharmacokinetic study in BALB/c mice
Format: in vivo
Settings: male, mouse, plasma, iv, i.v. (1.5 mg/kg)
measure: Cmax

• O=C(Nc1ccc(Oc2ccnc(Cl)c2Cl)c(F)c1)c1nc(-c2ccc(F)c(Cl)c2)cs1 [Compound 51am] = 552 ng/mL

* * *

Test system: FHC
Assay: MTT cytotoxicity assay, normal FHC cells
Settings: Homo sapiens, 48 h, read-out: IC50 FHC
pIC50: −log10 of the molar value.
measure: pIC50

• O=C(Nc1ccc(Oc2ccnc(Cl)c2)c(F)c1)c1nc(-c2ccccc2F)cs1 [Compound 51ac] = 4.50
• COc1cc2nccc(Oc3ccc(NC(=O)c4ncc(-c5ccccc5)s4)cc3)c2cc1OC [Compound 51g] = 4.26
• O=C(Nc1ccc(Oc2ccnc(Cl)c2)c(F)c1)c1nc(-c2ccc(F)c(F)c2)cs1 [Compound 51al] = 4.99
